IC50 values, listed per item
Test system: A549
Experiment: Cytotoxic activity against human A549 cells after 48 hrs by MTT assay
Format: functional, cell-based
Settings: A549, 48 h
Express it in µM; write the number only.

Query IC50 on A549 for `C[C@]12CC[C@H]3[C@@H](CC=C4C[C@@H](O)CC[C@@]43C)[C@@H]1CC[C@@H]2C(=O)C#Cc1ccccc1C(F)(F)F`
6.3

Query IC50 on A549 for `C[C@]12CC[C@H]3[C@@H](CC=C4C[C@@H](O)CC[C@@]43C)[C@@H]1CC[C@@H]2C(=O)C#Cc1cccc(C(F)(F)F)c1`
20.7

Query IC50 on A549 for `C[C@]12CC[C@H]3[C@@H](CC=C4C[C@@H](O)CC[C@@]43C)[C@@H]1CC[C@@H]2C(=O)C#Cc1cccc(F)c1`
24.9
